- Test system: CP252
- assay.info: qHTS profiling for inhibitors of Plasmodium falciparum proliferation (AID 504749); note: nearly all actives have a fitted effect of over 60% in size
- condition.description: P. falciparum in erythrocytes, SYBR Green DNA, 72 h; series mostly up to 28.7 µM
Results filed as inconclusive are left out. Calls of active or inactive are those of the source. Calls come from the whole dose curve; as a rule, active = well fitted inhibition curve with a large enough effect; inconclusive = small, poorly fitted or top-dose-only effect; inactive = flat fitted curve, though single readings scatter.
Labels: active, inactive

CCCc1cc(=O)[nH]c(=S)[nH]1
inactive
CCOc1cc(CC(=O)N[C@@H](CC(C)C)c2ccccc2N2CCCCC2)ccc1C(=O)O
inactive
COC(=O)C1=C(C)NC(C)=C(C(=O)OCCCN2CCC(c3ccccc3)(c3ccccc3)CC2)C1c1cccc([N+](=O)[O-])c1 (centres undefined)
active
Cc1cccc(C)c1OCC(=O)N[C@@H](Cc1ccccc1)[C@@H](O)C[C@H](Cc1ccccc1)NC(=O)[C@H](C(C)C)N1CCCNC1=O
active
